tested.system: CCR8 (Homo sapiens, UniProt P51685)
Sequence (P51685 whole entry, the tested form may be a part): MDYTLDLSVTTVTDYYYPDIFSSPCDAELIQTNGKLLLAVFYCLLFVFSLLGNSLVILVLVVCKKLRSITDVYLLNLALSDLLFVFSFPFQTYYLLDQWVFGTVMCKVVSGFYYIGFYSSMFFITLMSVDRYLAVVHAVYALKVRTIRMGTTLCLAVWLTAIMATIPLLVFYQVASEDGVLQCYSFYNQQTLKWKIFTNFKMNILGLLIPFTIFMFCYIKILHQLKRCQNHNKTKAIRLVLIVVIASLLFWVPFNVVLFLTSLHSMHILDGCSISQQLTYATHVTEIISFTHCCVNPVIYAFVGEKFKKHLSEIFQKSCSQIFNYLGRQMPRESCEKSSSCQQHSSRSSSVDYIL
measurement.protocol: Tango assay (Tango-CCR8-Gal4-CHO-K1 cells, CCL1-stimulated, ONE-Glo luminescence)
details: Tango Assay IC50, Inhibition of CCR8 Tango cell in vitro
Counter-ions that a name gives are not always drawn.
measurement.name: IC50 (nM)

a: Cc1ccccc1C(=O)Nc1ccc(S(=O)(=O)N[C@H](C)C2CCN(C(=O)OC(C)(C)C)CC2)c(C(F)(F)F)c1
b: Cc1cc(S(=O)(=O)NC(C)C2CCNCC2)ccc1NC(=O)c1ccccc1C (stereo not shown) [Compound 167A, hydrochloride]
Task item: Lower IC50: a or b ? Please reply using the label of the selected record.
Reply: b

###

tested.system: CCR8 (Homo sapiens, UniProt P51685)
measurement.protocol: Tango assay (Tango-CCR8-Gal4-CHO-K1 cells, CCL1-stimulated, ONE-Glo luminescence)
details: Tango Assay IC50, Inhibition of CCR8 Tango cell in vitro
pIC50: −log10 of the molar value.
measurement.name: pIC50

Cc1cc(S(=O)(=O)NC(C2CCNCC2)C2CC2)ccc1NC(=O)c1ccccc1C (stereo not shown) [Compound 225A] | 7.60

1: Cc1ccccc1C(=O)Nc1ccc(S(=O)(=O)N[C@@H](C)C2CCCCC2)c2ccccc12
2: Cc1ccccc1C(=O)Nc1ccc(S(=O)(=O)NC2CCCc3ccccc32)c2ccccc12 (stereo not shown)
Task item: Lower pIC50: 1 or 2 ? Please reply using the label of the selected record.
Reply: 2
(2: 7.72, 1: 7.92)

###

tested.system: CCR8 (Homo sapiens)
measurement.protocol: Tango assay (Tango-CCR8-Gal4-CHO-K1 cells, CCL1-stimulated, ONE-Glo luminescence)
details: Tango Assay IC50, Inhibition of CCR8 Tango cell in vitro
pIC50: −log10 of the molar value. Structures can show the parent of a compound that is named as a salt.
measurement.name: pIC50

The examples below pair each entry with its known result.
Cc1ccccc1C(=O)Nc1ccc(S(=O)(=O)NC(C)C2CCCN(C(=O)[C@H](C)N)C2)c2ccccc12 (single isomer, unassigned) [Compound 158A] | 5.82
Cc1ccccc1C(=O)Nc1ccc(S(=O)(=O)N(C)c2ccc3c(c2)N(C(=O)CN(C)C)CC3)c2ccccc12 | 5.77
Cc1ccccc1C(=O)Nc1ccc(S(=O)(=O)NC(C)CC2CCN(C(=O)OC(C)(C)C)CC2)c2ccccc12 (centres unmarked) | 6.24
Cc1ccccc1C(=O)Nc1ccc(S(=O)(=O)NC(C)C2CCCCN2C(=O)OC(C)(C)C)c2ccccc12 (single isomer, unassigned) [Compound 68] | 5.75
Cc1ccccc1C(=O)Nc1ccc(S(=O)(=O)NC2CCC23CCN(C(=O)OC(C)(C)C)CC3)c2ccccc12 (centres unmarked) | 6.21

P: COC(=O)CN1CCCC(C(C)NS(=O)(=O)c2ccc(NC(=O)c3ccccc3C)c3ccccc23)C1 (single isomer, unassigned) [Compound 19A]
Q: Cc1ccccc1C(=O)Nc1ccc(S(=O)(=O)NC(C)C2CCCN(C(=O)CN)C2)c2ccccc12 (single isomer, unassigned) [Compound 156C]
R: Cc1cc(S(=O)(=O)N[C@H](C)C2CCNCC2)ccc1NC(=O)c1ccsc1C [Compound 250A, hydrochloride]
S: Cc1cc(S(=O)(=O)N[C@H](C)C2CCNCC2)ccc1NC(=O)C(C)(C)C [Compound 209A, hydrochloride]
Task item: Parameters: sort_field (pIC50), sort_dir (desc). I'd appreciate it if you listed the labels in the requested order.
Reply: R, Q, S, P
(R: 6.98, Q: 6.69, S: 5.96, P: 5.55)

P: Cc1ccccc1C(=O)Nc1ccc(S(=O)(=O)NC(CO)C2CCCCC2)c2ccccc12 (centres unmarked)
Q: Cc1ccccc1C(=O)Nc1ccc(S(=O)(=O)NC(C)C2CC3CCC2CC3)c2ccccc12 (centres unmarked)
Task item: Which of the two items, P and Q , has the greater recorded pIC50? Please reply using the label of the selected record.
Reply: Q

A: Cc1cc(S(=O)(=O)NC(C)(C)C2CCN(C)CC2)ccc1NC(=O)c1ccccc1C
B: Cc1ccccc1C(=O)Nc1ccc(S(=O)(=O)N[C@H](C)C2CCNCC2)cc1C(C)C [Compound 197A, hydrochloride]
Task item: Lower pIC50: A or B ? Please reply using the label of the selected record.
Reply: A
(A: 6.61, B: 6.94)

###

tested.system: CCR8 (Homo sapiens, UniProt P51685)
measurement.protocol: Tango assay (Tango-CCR8-Gal4-CHO-K1 cells, CCL1-stimulated, ONE-Glo luminescence)
details: Tango Assay IC50, Inhibition of CCR8 Tango cell in vitro
Counter-ions that a name gives are not always drawn.
measurement.name: IC50 (nM)

The examples below pair each entry with its known result.
Cc1ccccc1NC(=O)c1ccc(S(=O)(=O)N[C@H](C)C2CCNCC2)cc1C [Compound 113A] | 388
CCc1cc(S(=O)(=O)N[C@H](C)C2CCNCC2)ccc1NC(=O)c1ccccc1C | 18

a: Cc1cc(S(=O)(=O)N[C@H](C)C2CCN(C)CC2)ccc1NC(=O)c1ccc(Cl)cc1C [Compound 273A, hydrochloride]
b: Cc1cc(S(=O)(=O)N[C@H](C)C2CCNCC2)ccc1NC(=O)Cc1ccccc1 [Compound 207A, hydrochloride]
Task item: Lower IC50: a or b ? Please reply using the label of the selected record.
Reply: a
(a: 1 nM, b: 40 nM)

###

tested.system: CCR8 (Homo sapiens, UniProt P51685)
measurement.protocol: Tango assay (Tango-CCR8-Gal4-CHO-K1 cells, CCL1-stimulated, ONE-Glo luminescence)
details: Tango Assay IC50, Inhibition of CCR8 Tango cell in vitro
Structures can show the parent of a compound that is named as a salt.
measurement.name: IC50 (nM)

CC(NS(=O)(=O)c1ccc2nc(Nc3ccccc3)[nH]c2c1)C1CCCCC1 (centres unmarked) | 870
Cc1cc(S(=O)(=O)N[C@H](C)C2CCN(C)CC2)ccc1NC(=O)c1cc(Cl)ccc1C | 1
Cc1cc(S(=O)(=O)N[C@H](C)C2CCNCC2)c(Cl)cc1NC(=O)c1ccccc1C [Compound 169A, hydrochloride] | 12
Cc1ccccc1C(=O)Nc1ccc(S(=O)(=O)N[C@H](C)C2CCCCC2)c2ccccc12 | 1.6

I: Cc1ccccc1C(=O)Nc1ccc(S(=O)(=O)N[C@H](C)C2CCNCC2)c(F)c1Cl [Compound 246A, hydrochloride]
II: Cc1ccccc1C(=O)N(C)c1ccc(S(=O)(=O)N[C@H](C)C2CCNCC2)cc1C [Compound 231A, hydrochloride]
Task item: Lower IC50: I or II ? Please reply using the label of the selected record.
Reply: I
(I: 79 nM, II: 279 nM)

a: Cc1ccccc1C(=O)Nc1ccc(S(=O)(=O)NC(C)C2CC3CCC2CC3)c(C)c1C (centres unmarked)
b: Cc1ccccc1C(=O)Nc1cc(F)c(S(=O)(=O)NC(C)C2CCN(C)CC2)cc1Cl (centres unmarked) [Compound 263C]
c: Cc1cc(S(=O)(=O)N[C@H](C)C2CCNCC2)ccc1NC(=O)c1ccc(Cl)cc1C [Compound 256A, hydrochloride]
Task item: Parameters: sort_field (IC50), sort_dir (desc). I'd appreciate it if you listed the labels in the requested order.
Reply: a, b, c
(a: 61 nM, b: 15 nM, c: 2 nM)

1: Cc1ccccc1C(=O)Nc1cc(Cl)c(S(=O)(=O)N[C@H](C)C2CCNCC2)cc1Cl [Compound 243A, hydrochloride]
2: CCC(NS(=O)(=O)c1ccc(NC(=O)c2ccccc2C)c(C)c1)C1CCNCC1 (centres unmarked) [Compound 223A, hydrochloride]
3: Cc1ccccc1C(=O)Nc1ccc(S(=O)(=O)NC(C)C2CCCN(C(=O)[C@H](C)N)C2)c2ccccc12 (single isomer, unassigned) [Compound 158D]
Task item: Parameters: sort_field (IC50), sort_dir (desc). I'd appreciate it if you listed the labels in the requested order.
Reply: 3, 2, 1
(3: 1020 nM, 2: 73 nM, 1: 12 nM)

P: Cc1ccccc1C(=O)Nc1ccc(S(=O)(=O)NC(C)C2CCCCCC2)c2ccccc12 (centres unmarked)
Q: CC(NS(=O)(=O)c1ccc2nc(Cc3ccccc3)[nH]c2c1)C1CCCCC1 (centres unmarked)
Task item: Which of the two items, P and Q , has the greater recorded IC50? Please reply using the label of the selected record.
Reply: Q
(Q: 2100 nM, P: 1.8 nM)

###

tested.system: CCR8 (Homo sapiens)
measurement.protocol: Tango assay (Tango-CCR8-Gal4-CHO-K1 cells, CCL1-stimulated, ONE-Glo luminescence)
details: Tango Assay IC50, Inhibition of CCR8 Tango cell in vitro
pIC50: −log10 of the molar value.
measurement.name: pIC50

Task item: Fill in pIC50 for record CC(NS(=O)(=O)c1ccc(-c2nn[nH]n2)c2ccccc12)C1CCCCC1 (stereo not shown)
Reply: < 5.00

Task item: Fill in pIC50 for record COc1cc2c(cc1NS(=O)(=O)c1ccc(NC(=O)c3ccccc3C)c3ccccc13)N(C(C)=O)CC2
Reply: < 5.00

Task item: Fill in pIC50 for record CC(NS(=O)(=O)c1ccc2[nH]c(=O)ccc2c1)C1CC2CCC1CC2 (stereo not shown)
Reply: < 4.00

Task item: Fill in pIC50 for record Cc1c(C(=O)O)cccc1S(=O)(=O)NC(C)C1CCCCC1 (stereo not shown)
Reply: < 5.00
